- Method notes: protein stability index of a GFP-peptide fusion (yeast GPS) (PSI 1-4); higher = more stable; sorted into four equal gates, so the index is relative within each strain
- Experimental parameters: pdr5∆
# reported protein stability index; entries follow
Field format: numeric only.

Worked set:
What measured protein stability index goes with SIMVELKLPLEINYAFS [SIR3] ? 1.64

What measured protein stability index goes with GGLQKGKLVVSQEMVPR [SIR3] ? 2.83

What measured protein stability index goes with ADNDGPRINNISAEDRA [SNF2] ? 3.16

What measured protein stability index goes with LGVASFHGTSTKANDKN [FAS2] ? 2.95

Continue with the next sequence.
What measured protein stability index goes with EQEDIIEKTESVDKKVD [SWI3] ? 3.02

----------
# reported protein stability index; entries follow
- Method notes: protein stability index of a GFP-peptide fusion (yeast GPS) (PSI 1-4); higher = more stable; sorted into four equal gates, so the index is relative within each strain
- Experimental parameters: pdr5∆
Field format: numeric only.

What measured protein stability index goes with CELQVETYGSMEMSEKI [RPN5] ? 2.96

What measured protein stability index goes with NEVIDKLKNENTDLKDI [PCI8] ? 3.04

Continue with the next sequence.
What measured protein stability index goes with LGLYVGVDDQILATNSL [YJL039C/NUP192] ? 3.06

----------
# reported protein stability index; entries follow
- Method notes: protein stability index of a GFP-peptide fusion (yeast GPS) (PSI 1-4); higher = more stable; sorted into four equal gates, so the index is relative within each strain
- Experimental parameters: pdr5∆
Field format: numeric only.

What measured protein stability index goes with GGNSNKSPPQFFYNISS [SIN4] ? 3.04

----------
- Method notes: protein stability index of a GFP-peptide fusion (yeast GPS) (PSI 1-4); higher = more stable; sorted into four equal gates, so the index is relative within each strain
- Experimental parameters: san1∆
Think of 2 as a floor: if protein stability index stands on it or above, it is class 1; beneath it, class 0.

Known results for sequences:
Has SFAKLVPCEGKDVTQGL [SMC2] a recorded protein stability index greater than or equal to 2? class 0

Has RSISEPSINLDPDNTSF [ESC2] a recorded protein stability index greater than or equal to 2? class 1

Has SMFGSDQKTGRAKSSSH [RPN4] a recorded protein stability index greater than or equal to 2? class 1

Has NILFSLWKLLSTVKVSD [YLR018C/POM34] a recorded protein stability index greater than or equal to 2? class 0

Here's the next entry for you.
Has VIVTDPRSDAQAIKEAS [RPS0A] a recorded protein stability index greater than or equal to 2? class 1

----------
- Method notes: protein stability index of a GFP-peptide fusion (yeast GPS) (PSI 1-4); higher = more stable; sorted into four equal gates, so the index is relative within each strain
- Experimental parameters: san1∆
Think of 3 as a floor: if protein stability index stands on it or above, it is Criterion met; beneath it, Criterion not met.

Has SSPEEPFMSYSPQLTAI [SNF12] a recorded protein stability index greater than or equal to 3? Criterion not met

Has DDDAVRREVQIQLQEFL [NSL1] a recorded protein stability index greater than or equal to 3? Criterion met

Has MEERDGAKFENIVHNFK [AAR2] a recorded protein stability index greater than or equal to 3? Criterion not met

Has KLLIQIDELSNGQRSNS [SMC1] a recorded protein stability index greater than or equal to 3? Criterion met

Has MIDLGFEDQVTNILTKV [PRP28] a recorded protein stability index greater than or equal to 3? Criterion not met
